biological target: SERCA1a (rabbit light skeletal SR vesicles) (Oryctolagus cuniculus); construct: rabbit muscles were freshly harvested from the back and hind leg of New Zealand White rabbits and purified using a sucrose gradient; from tissue; host or cells: rabbit (New Zealand White) back and hind leg skeletal muscle, light SR vesicles; assay: NADH-coupled Ca-ATPase activity assay, skeletal SR (CRC at pCa 5.4); format: biochemical; settings: maximal effect of CRC 0.05 to 50 µM, pCa 5.4, relative to DMSO, mean ± SD, n = 3
Sequence (P04191 1-994 isoform P04191-2): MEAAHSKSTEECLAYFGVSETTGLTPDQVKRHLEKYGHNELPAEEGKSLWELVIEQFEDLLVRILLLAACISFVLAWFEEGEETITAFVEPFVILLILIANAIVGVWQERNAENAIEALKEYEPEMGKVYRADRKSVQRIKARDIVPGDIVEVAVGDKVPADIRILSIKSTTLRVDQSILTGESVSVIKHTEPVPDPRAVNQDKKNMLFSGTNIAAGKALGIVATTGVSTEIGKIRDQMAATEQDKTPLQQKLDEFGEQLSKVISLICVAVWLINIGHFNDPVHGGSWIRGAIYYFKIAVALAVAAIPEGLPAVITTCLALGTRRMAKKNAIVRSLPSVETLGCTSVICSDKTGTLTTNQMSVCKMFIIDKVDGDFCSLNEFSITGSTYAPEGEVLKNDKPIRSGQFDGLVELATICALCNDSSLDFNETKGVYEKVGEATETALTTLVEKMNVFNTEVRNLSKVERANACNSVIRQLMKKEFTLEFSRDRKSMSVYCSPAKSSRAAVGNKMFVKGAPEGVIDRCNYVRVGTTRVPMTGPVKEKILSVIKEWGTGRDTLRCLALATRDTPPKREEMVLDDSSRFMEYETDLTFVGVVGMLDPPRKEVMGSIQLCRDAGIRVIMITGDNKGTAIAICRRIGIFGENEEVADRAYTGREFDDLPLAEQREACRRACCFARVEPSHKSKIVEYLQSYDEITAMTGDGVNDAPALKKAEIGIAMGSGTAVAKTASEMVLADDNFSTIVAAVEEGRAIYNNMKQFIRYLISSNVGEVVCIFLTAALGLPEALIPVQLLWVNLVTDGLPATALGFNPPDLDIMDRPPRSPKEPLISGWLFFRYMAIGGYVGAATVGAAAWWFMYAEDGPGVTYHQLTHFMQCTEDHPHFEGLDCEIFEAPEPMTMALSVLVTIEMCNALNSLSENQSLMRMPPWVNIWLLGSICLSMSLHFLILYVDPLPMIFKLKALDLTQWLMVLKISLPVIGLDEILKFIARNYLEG
property: Skeletal SR ATPase Activity Percent Increase (%)

>  <compound>
CCOC(=O)C1(Cc2cccc(C(F)(F)F)c2)CCN(C(=O)c2sccc2C)CC1 [Compound 8]

>  <uom>
%

>  <value_reported>
45

$$$$
>  <compound>
CCOC(=O)C1(CCc2ccccc2)CCN(C(=O)c2occc2C)CC1 [Compound 9]

>  <uom>
%

>  <value_reported>
72

$$$$
>  <compound>
Cc1ccc(CN(C)C(=O)CC(c2ccccc2)c2ccc3c(c2)OCO3)o1 (stereo not shown) [Compound 10]

>  <uom>
%

>  <value_reported>
57

$$$$
>  <compound>
CCc1cccc(NC(=O)CCC(=O)NCc2snnc2C)c1 [Compound 17]

>  <uom>
%

>  <value_reported>
42

$$$$
>  <compound>
C=CCN(Cc1ccccc1OCC)C(=O)C1CCC1 [Compound 5]

>  <uom>
%

>  <value_reported>
41

$$$$

I = C=C(C)COc1cccc(C(=O)NCCn2cccn2)c1 [Compound 15]
II = Cc1ccsc1CN(C)C(=O)CC(c1ccccc1)c1ccc2c(c1)OCO2 (stereo not shown) [Compound 11]
Input pair: I , II . Output: entry with lower Skeletal SR ATPase Activity Percent Increase. Write down the label attached to your selection.
I
(I: 30%, II: 61%)

I = COc1ncc(CN(Cc2sccc2C)CC(C)C)cn1 [Compound 2]
II = CCCN(Cc1ccccc1OC)C(=O)c1cc(C)c(C)s1 [Compound 4]
In the pair I and II , the larger recorded Skeletal SR ATPase Activity Percent Increase belongs to which? Write down the label attached to your selection.
II

1 = OCc1ccccc1-c1ccc(-c2nc(CCc3ccccc3)no2)cn1 [Compound 19]
2 = COc1ccccc1CNc1nc(C(C)(C)C)nc2c1cnn2C [Compound 14]
Input pair: 1 , 2 . Output: entry with lower Skeletal SR ATPase Activity Percent Increase. Write down the label attached to your selection.
2
(2: 25%, 1: 42%)

P = CCC(C)N(Cc1ccc(C)cc1)Cc1nccs1 (stereo not shown) [Compound 1]
Q = COc1ccc(CCNC(=O)c2oc3c(Cl)cc(C)cc3c2C)cc1 [Compound 16]
Input pair: P , Q . Output: entry with lower Skeletal SR ATPase Activity Percent Increase. Write down the label attached to your selection.
Q

====

target: SERCA1a (skeletal SR vesicles) (Oryctolagus cuniculus); construct: rabbit muscles were freshly harvested from the back and hind leg of New Zealand White rabbits and purified using a sucrose gradient; from tissue; host or cells: rabbit (New Zealand White) back and hind leg skeletal muscle, light SR vesicles; assay: Oxalate-supported Ca2+-uptake assay, skeletal SR (CRC at pCa 5.4); type: biochemical, rabbit; conditions: maximal effect of CRC, pCa 5.4, mean ± SD, n = 3; dash = no observable effect
Sequence (P04191 1-994 isoform P04191-2): as above
property: Skeletal SR Ca^2+ Uptake Activity Percent Increase (%)

>  <compound>
COc1cccc(-c2nn(-c3ccccc3)cc2CN(Cc2c(C)nn(C)c2C)C2CC2)c1

>  <target_or_test_system>
SERCA1a (skeletal SR vesicles) (Oryctolagus cuniculus)

>  <uom>
%

>  <value_reported>
8.9

$$$$

A = COc1ccc(CCNC(=O)c2oc3c(Cl)cc(C)cc3c2C)cc1
B = CCCN(Cc1ccccc1OC)C(=O)c1cc(C)c(C)s1
Input pair: A , B . Output: entry with lower Skeletal SR Ca^2+ Uptake Activity Percent Increase. Write down the label attached to your selection.
A
